Target: hBTK (full-length BTK, 6HIS-tag cleaved) (Homo sapiens (Human), UniProt Q06187)
Sequence (Q06187 whole entry): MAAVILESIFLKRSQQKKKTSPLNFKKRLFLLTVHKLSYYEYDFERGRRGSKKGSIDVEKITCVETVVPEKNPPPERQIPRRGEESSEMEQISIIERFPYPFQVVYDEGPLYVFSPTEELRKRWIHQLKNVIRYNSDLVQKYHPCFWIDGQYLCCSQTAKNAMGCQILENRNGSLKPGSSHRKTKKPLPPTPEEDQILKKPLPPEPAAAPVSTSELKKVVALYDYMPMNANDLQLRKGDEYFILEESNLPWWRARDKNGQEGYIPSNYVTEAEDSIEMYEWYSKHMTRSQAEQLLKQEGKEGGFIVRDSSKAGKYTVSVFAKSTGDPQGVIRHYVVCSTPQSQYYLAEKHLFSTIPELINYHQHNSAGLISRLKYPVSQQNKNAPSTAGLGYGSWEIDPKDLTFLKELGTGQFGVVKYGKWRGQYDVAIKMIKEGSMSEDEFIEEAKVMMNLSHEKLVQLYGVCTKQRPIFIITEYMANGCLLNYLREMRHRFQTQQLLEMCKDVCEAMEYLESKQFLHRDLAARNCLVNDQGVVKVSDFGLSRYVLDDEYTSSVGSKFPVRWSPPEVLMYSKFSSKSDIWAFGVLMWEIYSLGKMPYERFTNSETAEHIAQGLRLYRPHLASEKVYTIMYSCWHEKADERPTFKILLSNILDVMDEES
Assay: BTK enzymatic activity, IMAP-FP assay (Assay Method B)
Type: biochemical
pIC50: −log10 of the molar value.
recorded.endpoint: pIC50

Query: Please report the recorded pIC50 for CCc1ccnc(NC(=O)c2ccc(-c3cn([C@@H]4CCCN(C(=O)C5(C)COC5)C4)c4ncnc(N)c34)cc2)c1 .
Result: 7.00 to 8.00

---

Molecular target: Btk enzyme (His-Btk) (Homo sapiens (Human))
Sequence (Q06187 whole entry): as above
Experiment: Btk enzyme activity, IMAP fluorescence polarization assay (Assay Method A)
Details: read-out: EC50 Btk activity values - Assay Method A
recorded.endpoint: EC50

{"smiles.str": "Nc1ncc(Cl)n2c([C@@H]3CCCNC3)nc(-c3ccc(C(=O)Nc4cc(C(F)(F)F)ccn4)cc3)c12", "recorded.endpoint": "EC50", "observed.value": "< 10 nM"}

Moving on to the next compound.
Query: Please report the recorded EC50 for Nc1nccn2c([C@@H]3CCCN(C(=O)OCc4ccccc4)C3)nc(-c3ccc(C(=O)Nc4cc(C(F)(F)F)ccn4)cc3)c12 .
Result: < 10 nM

All values here come from patent US9718828B2.
